Data origin, for the record: ChEMBL document CHEMBL5058577

# Tested on: HEK-293T
# assay_info: Multiplex assay against HEK293T
# Assay type: toxicity, cell-based
# condition_set: human, 24 h, 1 µM, compound concentration 1 uM, replicate 1
Response field class: enum, chosen by comparing Total Cell Count against LOW = under 500, MID = from 500 up to 600, HIGH = 600 and over

molecule | group_label
CC(C)COc1ccc(CNC(=O)N(Cc2ccc(F)cc2)C2CCN(C)CC2)cc1 | MID
Cc1cccc(NC(=O)CN2CCC(c3ccccn3)CC2)c1.Cl.Cl | LOW
Cc1onc(-c2ccccc2Cl)c1C(=O)N(C)c1ccc(Cl)cc1 | MID
CCCCC1=NC2(CCCC2)C(=O)N1Cc1ccc(-c2ccccc2-c2nnn[nH]2)cc1 | HIGH
Cc1noc(-c2ccc(-c3ccc(CC(=O)O)cc3)cc2)c1NC(=O)O[C@H](C)c1ccccc1Cl | MID
Br.CS(=O)(=O)Nc1c(O)ccc2c1CCCC2C1=NCCN1 (stereo not drawn) | MID
CC(C)c1noc(N2CCC(COc3ccc(-c4ccc(S(C)(=O)=O)cc4)nc3)CC2)n1 | MID
N#Cc1cc(F)cc(-c2nc(-c3ccc(F)cn3)no2)c1 | LOW
CC(=O)Nc1cccc2c1c(Sc1ccc(Cl)cc1)c(C)n2CC(=O)O | MID
N#Cc1c(Oc2cccc(OS(=O)(=O)CCCC(F)(F)F)c2)cccc1C(F)(F)F | HIGH
C[C@H](N)COC(=O)[C@@H](CCCCN)NC(=O)Cc1c(-c2ccc3ccccc3c2)[nH]c2c1ccc1ccccc12 | HIGH
O=C1[C@H](Cc2ccc(O)cc2)N2C(=O)CCN(C(=O)NCc3ccccc3)[C@H]2CN1Cc1cccc2ccccc12 | LOW
Cc1sc2c(c1C)C(c1ccc(Cl)cc1)=N[C@@H](CC(=O)NCCCCCCCCNC(=O)COc1cccc3c1C(=O)N(C1CCC(=O)NC1=O)C3=O)c1nnc(C)n1-2 (stereo partly drawn) | LOW
CCCOc1ccc2[nH]cc(C3=CCNCC3)c2n1.Cl | MID
COC[C@@H](c1ccc(C(F)(F)F)cc1)N1CCN(C2(C)CCN(C(=O)c3c(C)ncnc3C)CC2)C[C@@H]1C.O=C(O)/C=C\C(=O)O [VICRIVIROC MALEATE] | MID
O=C(CCCc1ccccc1)Nc1nc2ccccc2c(=O)s1 | MID
Cc1c(CC(=O)O)c2cccnc2n1Cc1ccc(S(C)(=O)=O)cc1C(F)(F)F | HIGH
Cc1cnc(-c2cc(N3CCN(C(=O)CCS(C)(=O)=O)CC3)ncc2Cl)c(C)c1 | LOW
Cl.NCCc1ccc(O)c(O)c1 [DOPAMINE HYDROCHLORIDE] | LOW
COc1ccccc1N1CCN(C[C@@H](C(=O)NC(C)(C)C)c2ccccc2)CC1.Cl.Cl | MID
CCCCC(=O)N(Cc1ccc(-c2ccccc2-c2nnn[nH]2)cc1)[C@H](C(=O)O)C(C)C | HIGH
O=C(NCCN1CCC(n2c(=O)[nH]c3cc(Cl)ccc32)CC1)c1ccc(F)cc1 [HALOPEMIDE] | LOW
